- Test system: BXPC-3
- Run Description: Antiproliferative activity against human BxPC3 cells after 72 hrs by CCK8 assay
- Assay Context: BXPC-3, 72 h
Measure Name: IC50 (µM)

INSERT INTO results (smi, unit_label, measured_result) VALUES
  ('CNC(=O)c1ccccc1Nc1nc(Nc2ccc(NS(=O)(=O)c3ccc(OC)cc3)c(C)c2)ncc1Cl', 'µM', 10.6),
  ('CNC(=O)c1ccccc1Nc1nc(Nc2ccc(NS(=O)(=O)c3ccc(F)cc3)cc2)ncc1Cl', 'µM', 6.92),
  ('CNC(=O)c1ccccc1Nc1nc(Nc2ccc(NS(=O)(=O)c3ccc(F)cc3)c(OC)c2)ncc1Cl', 'µM', 31.6);

[I] CNC(=O)c1ccccc1Nc1nc(Nc2ccc(NS(=O)(=O)c3ccc(OC)cc3)cc2)ncc1Cl
[II] CNC(=O)c1ccccc1Nc1nc(Nc2ccc(N3CCOCC3)cc2OC)ncc1Cl
Decide: I or II , by lowest recorded IC50. Give the chosen item's label as your response.
II
(II: 1.03 µM, I: 24.1 µM)

These entries and their values trace back to ChEMBL document CHEMBL4052657.
